STUDY TARGET: PTGER2 (Homo sapiens)
Construct: purchased Promega (in-house HiBiT-GPCR construct library, NanoBRET)
Sequence (P43116 whole entry): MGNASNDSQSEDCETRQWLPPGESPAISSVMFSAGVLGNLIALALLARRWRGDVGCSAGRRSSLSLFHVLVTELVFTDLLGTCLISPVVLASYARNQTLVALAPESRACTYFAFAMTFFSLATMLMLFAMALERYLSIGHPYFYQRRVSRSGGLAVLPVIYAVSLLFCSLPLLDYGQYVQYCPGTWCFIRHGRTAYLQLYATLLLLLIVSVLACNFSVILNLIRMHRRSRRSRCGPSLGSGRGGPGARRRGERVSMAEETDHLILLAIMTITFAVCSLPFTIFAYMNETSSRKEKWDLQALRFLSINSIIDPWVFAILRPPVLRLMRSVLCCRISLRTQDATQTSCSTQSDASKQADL
EXPERIMENT SUMMARY: NanoBRET screen HiBiT-PTGER2 in HEK293
Format: binding
CONDITION DETAILS: PTGER2; tracer 1μM
Record form. Attribute: NanoBRET Fold Response. Fill in for each entry.
// print number alone

query: Please list NanoBRET Fold Response recorded for the molecule CC(C)N(CC[C@H](c1ccccc1)c1cc(CCNC(=O)c2ccc(CNC(=O)CCc3ccc4n3[B-](F)(F)[N+]3=C(c5ccc[nH]5)C=CC3=C4)cc2)ccc1O)C(C)C
result: 0.97

query: Report measured NanoBRET Fold Response; entry is O=C(CCc1ccc2n1[B-](F)(F)[N+]1=C(c3ccc[nH]3)C=CC1=C2)NCc1ccc(C(=O)NCCOCCC(=O)N[C@@H]2CC[C@@]3(O)[C@H]4Cc5ccc(O)c6c5[C@@]3(CCN4CC3CC3)[C@H]2O6)cc1 [Naltrexone-3-NB590]
result: 1.00

query: Answer with the recorded NanoBRET Fold Response for the molecule listed here: CCCn1c(=O)c2[nH]c(-c3ccc(OCC(=O)NCCNC(=O)CCOCCNC(=O)c4ccc(CNC(=O)CCc5ccc6n5[B-](F)(F)[N+]5=C(c7ccc[nH]7)C=CC5=C6)cc4)cc3)nc2n(CCC)c1=O
result: 1.09

query: Using the record for O=C(CCOCCOCCOCCOCCNC(=O)CCc1ccc2n1[B-](F)(F)[N+]1=C(c3ccc[nH]3)C=CC1=C2)NCCCN1CCN(C2=Nc3ccccc3Oc3ccc(Cl)cc32)CC1 , state its measured NanoBRET Fold Response.
result: 1.03

query: Return the recorded NanoBRET Fold Response value; entry: COc1ccccc1N1CCN(CCCCN2C(=O)c3ccc(CNC(=O)CCOCCNC(=O)c4ccc(CNC(=O)CCc5ccc6n5[B-](F)(F)[N+]5=C(c7ccc[nH]7)C=CC5=C6)cc4)cc3C2=O)CC1
result: 1.00

Data origin, for the record: paper PMC8151276
